In this section we review reported RALB values for a set of compounds.
Species on record: Rattus norvegicus
test method notes: Open TG-GATES - Regimen: Daily Repeat
Format: toxicity, organism-based, Sprague-Dawley
Parameters: regimen Daily Repeat, gender Male, age 6 weeks
run parameters: in vivo, po, 0 mg/kg, […], tissue Plasma, route gavage, dose level Control, time 28 day
quantity: RALB (g/dL)

compound | quantity | numeric result
CC(=O)Nc1ccc2c(c1)Cc1ccccc1-2 [2-ACETYLAMINOFLUORENE] | RALB | 3.4
CC[C@@H](CO)NCCN[C@@H](CC)CO [ETHAMBUTOL] | RALB | 3.1
O=C(O)COc1nn(Cc2ccccc2)c2ccccc12 [BENDAZAC] | RALB | 3.6
CC(C)Cc1ccc(C(C)C(=O)O)cc1 (stereo not drawn) [IBUPROFEN] | RALB | 3.2
CC(=O)N1CCN(c2ccc(OCC3COC(Cn4ccnc4)(c4ccc(Cl)cc4Cl)O3)cc2)CC1 (stereo not drawn) [KETOCONAZOLE] | RALB | 3.1
CC(CCc1ccccc1)NCC(O)c1ccc(O)c(C(N)=O)c1 (stereo not drawn) [LABETALOL] | RALB | 2.8
CC(N)=O [ACETAMIDE] | RALB | 2.7
CCN(CC)N=O [N-NITROSODIETHYLAMINE] | RALB | 3.5
